Test system: Candida albicans ATCC10231
EXPERIMENT DESCRIPTION: Systemic fungal infection in mice, intravenous administration
Assay type: in vivo, ICR mice
CONDITION LABEL: 96 h, read-out: survival rate of mice, day 4
ASSAY READOUT: responders at 20 mg/kg (%)
Expressed in %, but write only the number.

### Prompt API: value(readout=responders at 20 mg/kg, system=Candida albicans ATCC10231) for record CC[C@@H]([C@H](C)O)n1ncn(-c2ccc(N3CCN(c4ccc(OC[C@@H]5CO[C@@](Cn6c[n+](C(C)OC(=O)N(C)c7ncccc7COC(=O)[C@@H](N)CCCNC(N)=O)cn6)(c6ccc(F)cc6F)C5)cc4)CC3)cc2)c1=O (some centres unmarked) [ST0012]
### Response 100

### Prompt API: value(readout=responders at 20 mg/kg, system=Candida albicans ATCC10231) for record CC[C@@H](C(C)OC(=O)OCOC(=O)CCCCCCOP(=O)([O-])[O-])n1ncn(-c2ccc(N3CCN(c4ccc(OC[C@@H]5CO[C@@](Cn6cncn6)(c6ccc(F)cc6F)C5)cc4)CC3)cc2)c1=O.[Na+].[Na+] (some centres unmarked) [ST0074]
### Response 90

---

This listing pairs molecules with measured half-life at 10 µM.
EXPERIMENT DESCRIPTION: In vitro metabolic stability in human intestine S9
Format: in vitro ADME
CONDITION LABEL: human; 37° C., 10 μM compound, 1 mg/mL S9, NADPH regeneration system; read-out: Human intestine S9 T1/2
Expressed in min, but write only the number.

Here is how some molecules turned out for half-life at 10 µM.
MOLECULE	half-life at 10 µM / min
CC[C@@H]([C@H](C)OC(=O)OC(C)OC(=O)CCCCCCCOS(=O)(=O)[O-])n1ncn(-c2ccc(N3CCN(c4ccc(OC[C@@H]5CO[C@@](Cn6cncn6)(c6ccc(F)cc6F)C5)cc4)CC3)cc2)c1=O.[Na+] (stereo partly drawn)	42.1
CC[C@@H]([C@H](C)OC(=O)OC(C)OC(=O)CCCCCOP(=O)([O-])[O-])n1ncn(-c2ccc(N3CCN(c4ccc(OC[C@@H]5CO[C@@](Cn6cncn6)(c6ccc(F)cc6F)C5)cc4)CC3)cc2)c1=O.[Na+].[Na+] (stereo partly drawn)	16.3
CC[C@@H](C(C)OC(=O)OC(C)OC(=O)CCCCCCOP(=O)([O-])[O-])n1ncn(-c2ccc(N3CCN(c4ccc(OC[C@@H]5CO[C@@](Cn6cncn6)(c6ccc(F)cc6F)C5)cc4)CC3)cc2)c1=O.[Na+].[Na+] (stereo partly drawn)	20.2
CC[C@@H](C(C)OC(=O)OC(C)OC(=O)CCCOS(=O)(=O)[O-])n1ncn(-c2ccc(N3CCN(c4ccc(OC[C@@H]5CO[C@@](Cn6cncn6)(c6ccc(F)cc6F)C5)cc4)CC3)cc2)c1=O.[Na+] (stereo partly drawn)	21.3

### Prompt May I ask what half-life at 10 µM has been recorded for CC[C@@H]([C@H](C)OC(=O)OCOC(=O)CCCCCOP(=O)([O-])[O-])n1ncn(-c2ccc(N3CCN(c4ccc(OC[C@@H]5CO[C@@](Cn6cncn6)(c6ccc(F)cc6F)C5)cc4)CC3)cc2)c1=O.[Na+].[Na+] ?
### Response 16.2

### Prompt May I ask what half-life at 10 µM has been recorded for CC[C@@H](C(C)OC(=O)OC(C)OC(=O)CCOP(=O)([O-])[O-])n1ncn(-c2ccc(N3CCN(c4ccc(OC[C@@H]5CO[C@@](Cn6cncn6)(c6ccc(F)cc6F)C5)cc4)CC3)cc2)c1=O.[Na+].[Na+] (stereo partly drawn) ?
### Response 40.4
